Target: Glutaminase kidney isoform, mitochondrial (Homo sapiens)
Sequence (O94925 whole entry, canonical isoform): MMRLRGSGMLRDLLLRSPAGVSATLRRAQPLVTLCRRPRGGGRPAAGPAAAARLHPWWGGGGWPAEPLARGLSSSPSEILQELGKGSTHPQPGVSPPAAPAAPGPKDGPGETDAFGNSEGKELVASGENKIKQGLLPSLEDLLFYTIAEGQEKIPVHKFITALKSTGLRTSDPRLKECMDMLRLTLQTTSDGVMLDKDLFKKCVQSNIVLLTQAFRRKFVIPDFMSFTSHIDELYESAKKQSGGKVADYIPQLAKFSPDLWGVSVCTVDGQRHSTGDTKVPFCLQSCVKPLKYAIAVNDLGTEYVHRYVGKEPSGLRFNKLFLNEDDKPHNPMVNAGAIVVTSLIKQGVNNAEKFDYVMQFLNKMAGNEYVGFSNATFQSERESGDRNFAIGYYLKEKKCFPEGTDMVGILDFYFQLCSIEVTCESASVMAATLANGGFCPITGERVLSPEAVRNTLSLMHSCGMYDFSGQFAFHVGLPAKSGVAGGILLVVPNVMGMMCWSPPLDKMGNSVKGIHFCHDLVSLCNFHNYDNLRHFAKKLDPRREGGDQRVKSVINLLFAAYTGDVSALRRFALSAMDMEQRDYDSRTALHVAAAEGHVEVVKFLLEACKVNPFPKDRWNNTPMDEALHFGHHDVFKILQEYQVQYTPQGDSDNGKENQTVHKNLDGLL
Assay: Allosteric inhibition of human KGA assessed as reduction in glutamate formation using glutamine as substrate pretreated with enzyme for 15 mins followed by substrate addition and measured after 3 hrs by KGA/GDH coupled assay
measurementName: pIC50
Interpret pIC50 as the negative base-10 log of the concentration measured in mol/L.

// pIC50 lookup, key: `COc1ccc2[se]n(CCCCCCn3[se]c4ccc(OCCCCC[C@@H]5SC[C@@H]6NC(=O)N[C@@H]65)cc4c3=O)c(=O)c2c1` 7.14
